Assayed System: CDK7/cyclinH/MAT1 complex (Homo sapiens)
Sequence (P50613 whole entry, species assumed): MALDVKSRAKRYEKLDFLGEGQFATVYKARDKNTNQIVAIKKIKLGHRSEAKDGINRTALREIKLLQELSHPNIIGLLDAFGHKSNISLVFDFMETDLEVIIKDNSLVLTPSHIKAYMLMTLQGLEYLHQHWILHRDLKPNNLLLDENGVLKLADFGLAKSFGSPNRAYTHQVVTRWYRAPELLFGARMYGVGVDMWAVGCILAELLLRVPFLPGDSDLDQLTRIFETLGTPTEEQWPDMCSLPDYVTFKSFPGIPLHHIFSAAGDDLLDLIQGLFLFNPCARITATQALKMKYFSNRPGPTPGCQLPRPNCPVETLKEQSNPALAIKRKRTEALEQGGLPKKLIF
Sequence (P51946 whole entry partner, species assumed): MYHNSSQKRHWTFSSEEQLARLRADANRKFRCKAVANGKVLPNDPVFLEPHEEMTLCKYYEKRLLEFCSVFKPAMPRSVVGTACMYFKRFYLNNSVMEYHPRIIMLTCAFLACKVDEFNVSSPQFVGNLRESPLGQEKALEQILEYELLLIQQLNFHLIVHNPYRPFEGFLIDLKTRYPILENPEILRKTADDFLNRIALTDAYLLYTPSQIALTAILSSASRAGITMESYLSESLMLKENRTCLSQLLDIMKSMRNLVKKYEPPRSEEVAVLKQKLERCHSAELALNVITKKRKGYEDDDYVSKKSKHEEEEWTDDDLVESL
Sequence (P51948 whole entry partner, species assumed): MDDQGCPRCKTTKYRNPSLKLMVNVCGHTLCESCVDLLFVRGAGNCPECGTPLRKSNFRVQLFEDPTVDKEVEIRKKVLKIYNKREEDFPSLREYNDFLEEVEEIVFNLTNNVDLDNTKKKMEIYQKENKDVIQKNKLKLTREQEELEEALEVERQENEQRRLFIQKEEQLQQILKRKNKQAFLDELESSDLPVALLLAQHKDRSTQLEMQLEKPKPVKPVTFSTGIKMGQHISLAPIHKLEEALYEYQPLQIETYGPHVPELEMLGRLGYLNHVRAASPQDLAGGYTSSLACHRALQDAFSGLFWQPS
Procedure Summary: In-vitro enzymatic inhibitory activity testing, CDK7 inhibition assay (Caliper EZ Reader II)
Recorded Conditions: CDK7/cyclinH/MAT1 6 nM, 180 min at 27° C.
pIC50: −log10 of the molar value.
Reported Endpoint: pIC50

Check out these entries, answers already filled in.
Compound: CP(C)(=O)c1cccc2c(-c3nc(NC4CCC5(CCNC5)C4)ncc3C(F)(F)F)c[nH]c12 (single isomer, unassigned) [Compound 100]
pIC50: > 7.70
--
Compound: CC1(C)COCC(Nc2ncc(C(F)(F)F)c(-c3c[nH]c4nc(C#N)ccc34)n2)CN1 (single isomer, unassigned) [Compound 63]
pIC50: 6.70 to 7.70

Give pIC50 for the following compound: CP(C)(=O)c1cccc2c(-c3nc(N[C@H](CO)C4CCCCC4)ncc3C(F)(F)F)c[nH]c12 [Compound 169]
6.70 to 7.70

Return reported pIC50. Input compound: C[C@@H](CO)Nc1ncc(Cl)c(-c2c[nH]c3c(P(C)(C)=O)cccc23)n1 [Compound 103]
6.70 to 7.70

Give reported pIC50 value for C[C@@H](CO)Nc1ncc(C(F)(F)F)c(-c2c[nH]c3c(P(C)(C)=O)cc(F)cc23)n1 [Compound 158]
> 7.70

====

Assayed System: CDK12 (aa686-1082)/cyclinK complex (Homo sapiens)
Construct: A CDK12 (aa686-1082)/cyclinK complex (50 nM)
Procedure Summary: In-vitro enzymatic inhibitory activity testing, CDK12 inhibition assay (Caliper EZ Reader II)
Type: biochemical
Recorded Conditions: CDK12/cyclinK 50 nM, 180 min at 27° C.; read-out: CDK12 IC50
Reported Endpoint: IC50

Below are worked cases with known answers.
Compound: CP(C)(=O)c1cccc2c(-c3nc(N[C@@H](CO)C4CC4)ncc3C(F)(F)F)c[nH]c12
IC50: > 50 µM
//
Compound: CP(C)(=O)c1cccc2c(-c3nc(NC4CCC5(CCNC5)C4)ncc3C(F)(F)F)c[nH]c12 (single isomer, unassigned) [Compound 98]
IC50: 5 to 50 µM
//
Compound: C[C@@H](CO)Nc1ncc(C(F)(F)F)c(-c2c[nH]c3nc(C4=CCOCC4)ccc23)n1
IC50: 5 to 50 µM
//
Compound: CP(C)(=O)c1cccc2c(-c3nc(NC[C@H]4C[C@H]4CO)ncc3C(F)(F)F)c[nH]c12
IC50: > 50 µM

Okay, next one:
# return recorded IC50 for input CP(C)(=O)c1cccc2c(-c3nc(N[C@@H]4CCC45CNC5)ncc3C(F)(F)F)c[nH]c12
5 to 50 µM

====

Measured IC50 by item
Assayed System: CDK12 (aa686-1082)/cyclinK complex (Homo sapiens, UniProt Q9NYV4)
Construct: A CDK12 (aa686-1082)/cyclinK complex (50 nM)
Sequence (Q9NYV4 686-1082, species assumed): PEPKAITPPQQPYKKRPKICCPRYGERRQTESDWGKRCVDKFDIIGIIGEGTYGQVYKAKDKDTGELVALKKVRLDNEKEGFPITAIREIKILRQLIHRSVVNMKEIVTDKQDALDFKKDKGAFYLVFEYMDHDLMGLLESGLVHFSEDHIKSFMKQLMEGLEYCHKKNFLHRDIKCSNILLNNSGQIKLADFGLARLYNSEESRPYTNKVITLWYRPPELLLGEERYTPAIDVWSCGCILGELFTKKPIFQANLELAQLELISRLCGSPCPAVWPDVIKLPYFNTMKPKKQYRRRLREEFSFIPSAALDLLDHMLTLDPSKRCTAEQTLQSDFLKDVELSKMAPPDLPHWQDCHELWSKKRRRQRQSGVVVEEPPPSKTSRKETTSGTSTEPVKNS
Sequence (O75909 whole entry partner, species assumed, the tested form may be a part): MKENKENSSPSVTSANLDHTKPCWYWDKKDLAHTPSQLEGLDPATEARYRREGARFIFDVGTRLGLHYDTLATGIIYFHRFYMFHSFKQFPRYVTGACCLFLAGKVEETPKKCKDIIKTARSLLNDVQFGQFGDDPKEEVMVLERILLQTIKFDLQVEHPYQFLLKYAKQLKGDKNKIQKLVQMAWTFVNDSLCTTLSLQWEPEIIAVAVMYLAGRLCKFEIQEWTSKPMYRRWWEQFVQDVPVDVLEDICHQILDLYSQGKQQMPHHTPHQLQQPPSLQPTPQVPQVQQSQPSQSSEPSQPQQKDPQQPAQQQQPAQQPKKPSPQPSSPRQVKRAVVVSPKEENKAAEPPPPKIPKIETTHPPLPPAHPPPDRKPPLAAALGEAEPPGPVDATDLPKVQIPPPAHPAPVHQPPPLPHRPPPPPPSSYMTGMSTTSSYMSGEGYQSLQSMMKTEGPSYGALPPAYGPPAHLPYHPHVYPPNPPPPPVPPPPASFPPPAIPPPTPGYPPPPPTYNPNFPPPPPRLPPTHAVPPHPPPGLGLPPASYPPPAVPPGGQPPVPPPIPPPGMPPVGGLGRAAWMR
Procedure Summary: In-vitro enzymatic inhibitory activity testing, CDK12 inhibition assay (Caliper EZ Reader II)
Type: biochemical
Recorded Conditions: CDK12/cyclinK 50 nM, 180 min at 27° C.; read-out: CDK12 IC50

Example molecules with recorded IC50:
Molecule: FC(F)(F)c1cnc(NC2CCC3(CCNC3)C2)nc1-c1c[nH]c2nc(N3CCOCC3)ccc12 (stereo not shown)
Observed Value: 5 to 50 µM
--
Molecule: CC1([C@@H](CO)Nc2ncc(C(F)(F)F)c(-c3c[nH]c4c(P(C)(C)=O)cccc34)n2)CC1
Observed Value: > 50 µM
--
Molecule: C[C@H](Nc1ncc(C(F)(F)F)c(-c2c[nH]c3c(P(C)(C)=O)cccc23)n1)C(C)(C)O
Observed Value: > 50 µM
--
Molecule: CP(C)(=O)c1cccc2c(-c3nc(NCC4(CO)CC4)ncc3C(F)(F)F)c[nH]c12
Observed Value: > 50 µM
--
Molecule: C[C@@H](O)CNc1ncc(C(F)(F)F)c(-c2c[nH]c3c(P(C)(C)=O)cccc23)n1
Observed Value: > 50 µM
--
Molecule: FC(F)(F)c1cnc(N[C@@H]2CCC23CNC3)nc1-c1c[nH]c2nc(N3CCOCC3)ccc12
Observed Value: > 50 µM

Okay, next one:
Provide IC50, system CDK12 (aa686-1082)/cyclinK complex (Homo sapiens, UniProt Q9NYV4), entry CP(C)(=O)c1cccc2c(-c3nc(NC[C@H](F)CO)ncc3C(F)(F)F)c[nH]c12
> 50 µM

====

Assayed System: CDK9/cyclinT1 complex (Homo sapiens, UniProt P50750)
Sequence (P50750 whole entry, species assumed): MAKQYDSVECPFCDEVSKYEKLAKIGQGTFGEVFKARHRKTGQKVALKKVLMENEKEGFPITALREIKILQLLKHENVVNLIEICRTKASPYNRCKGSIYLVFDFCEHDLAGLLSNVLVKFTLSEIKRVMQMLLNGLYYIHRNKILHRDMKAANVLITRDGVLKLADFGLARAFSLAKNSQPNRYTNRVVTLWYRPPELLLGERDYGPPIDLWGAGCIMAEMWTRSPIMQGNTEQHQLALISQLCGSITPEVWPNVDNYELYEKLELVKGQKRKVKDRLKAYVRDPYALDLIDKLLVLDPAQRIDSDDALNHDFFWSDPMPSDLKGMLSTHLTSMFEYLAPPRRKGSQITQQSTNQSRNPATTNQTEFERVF
Sequence (O60563 whole entry partner, species assumed): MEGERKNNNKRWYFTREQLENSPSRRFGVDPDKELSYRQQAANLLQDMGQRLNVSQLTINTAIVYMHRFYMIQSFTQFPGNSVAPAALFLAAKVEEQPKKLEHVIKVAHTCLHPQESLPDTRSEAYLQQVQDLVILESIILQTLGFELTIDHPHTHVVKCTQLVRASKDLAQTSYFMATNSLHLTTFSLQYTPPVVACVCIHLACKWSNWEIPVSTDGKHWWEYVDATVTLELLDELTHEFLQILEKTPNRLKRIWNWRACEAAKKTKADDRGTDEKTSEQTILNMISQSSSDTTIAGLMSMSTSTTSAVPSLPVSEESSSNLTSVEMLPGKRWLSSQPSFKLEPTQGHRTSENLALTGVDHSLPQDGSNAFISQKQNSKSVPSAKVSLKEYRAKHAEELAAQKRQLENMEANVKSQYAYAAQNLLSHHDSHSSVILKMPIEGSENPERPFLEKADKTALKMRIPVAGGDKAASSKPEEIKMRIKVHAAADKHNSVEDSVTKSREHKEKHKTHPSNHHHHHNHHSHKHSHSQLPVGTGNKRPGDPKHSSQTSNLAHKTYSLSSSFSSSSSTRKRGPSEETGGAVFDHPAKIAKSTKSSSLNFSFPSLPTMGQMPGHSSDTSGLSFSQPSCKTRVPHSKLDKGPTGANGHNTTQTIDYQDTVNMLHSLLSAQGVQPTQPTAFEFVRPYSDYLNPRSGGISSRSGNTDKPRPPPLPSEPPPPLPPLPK
Procedure Summary: In-vitro enzymatic inhibitory activity testing, CDK9 inhibition assay (Caliper EZ Reader II)
Recorded Conditions: CDK9/cyclinT1 8 nM, 180 min at 27° C.
pIC50: −log10 of the molar value.
The entries below come with measured pIC50 values attached.

Compound: CP(C)(=O)c1cccc2c(-c3nc(NCC(O)C(F)F)ncc3C(F)(F)F)c[nH]c12 (single isomer, unassigned) [Compound 125]
pIC50: < 4.30
//
Compound: CP(C)(=O)c1cccc2c(-c3nc(NC(CO)CO)ncc3C(F)(F)F)c[nH]c12 [Compound 194]
pIC50: < 4.30
//
Compound: C[C@@H](CO)Nc1ncc(C(F)(F)F)c(-c2c[nH]c3nc(C4=CCOCC4)ccc23)n1 [Compound 181]
pIC50: < 4.30
//
Compound: C[C@H]1COCCN1c1ccc2c(-c3nc(N[C@@H]4CCC45CNC5)ncc3C(F)(F)F)c[nH]c2n1 [Compound 67]
pIC50: 4.30 to 5.30
//
Compound: CP(C)(=O)c1cccc2c(-c3nc(NC4(CO)CCC4)ncc3C(F)(F)F)c[nH]c12 [Compound 168]
pIC50: < 4.30

Attention now shifts to the item below.
Fill in reported pIC50 for this entry: CP(C)(=O)c1cccc2c(-c3nc(NC4(CO)CC4)ncc3C(F)(F)F)c[nH]c12 [Compound 94]
< 4.30

====

Procedure Summary: Caco-2 membrane permeability and efflux rate
Assay type: in vitro ADME
Recorded Conditions: human, Caco-2, Caco-2, 5 μM, basal end to top end
Mark false for Papp B→A at 2 h, 5 μM values under 30 ×10⁻⁶ cm/s, and true for everything at or above.

hey, is Papp B→A at 2 h, 5 μM for this one >= 30 ×10⁻⁶ cm/s? CP(C)(=O)c1cccc2c(-c3nc(NCCO)ncc3C(F)(F)F)c[nH]c12
true

====

Assayed System: CDK7/cyclinH/MAT1 complex (Homo sapiens)
Procedure Summary: In-vitro enzymatic inhibitory activity testing, CDK7 inhibition assay (Caliper EZ Reader II)
Recorded Conditions: CDK7/cyclinH/MAT1 6 nM, 180 min at 27° C.
Experimental: CDK12/CyclinK was diluted in an assay buffer (80 mM MES PH 6.5, 0.01% Tween 20, 50 ug/mL BSA, 10 mM MgCl2) to afford a corresponding enzyme solution with the 2.4 concentration. […] A reaction mixture was analyzed on Caliper EZ Reader II by electrophoretic separation of a fluorogenic substrate and a phosphorylated product. Data were calculated by using GraphPad Prism version 6.0, and IC50 values were adjusted and obtained by using a nonlinear regression model of a dose response curve.
IC50: recorded values

Answered examples (8):
Compound: CN(C)CC1CCCC1Nc1ncc(C(F)(F)F)c(-c2c[nH]c3c(P(C)(C)=O)cccc23)n1 (single isomer, unassigned) [Compound 135]
IC50: < 20 nM
--
Compound: CP(C)(=O)c1cccc2c(-c3nc(NC4(CO)CCCC4)ncc3C(F)(F)F)c[nH]c12
IC50: 20 to 200 nM
--
Compound: CP(C)(=O)c1cccc2c(-c3nc(NC[C@H]4C[C@H]4CO)ncc3C(F)(F)F)c[nH]c12
IC50: < 20 nM
--
Compound: FC(F)(F)c1cnc(NC2COC23CNC3)nc1-c1c[nH]c2nc(N3CCOCC3)ccc12 (stereo not drawn)
IC50: 20 to 200 nM
--
Compound: C[C@@H](CO)Nc1ncc(Br)c(-c2c[nH]c3c(P(C)(C)=O)cccc23)n1
IC50: < 20 nM
--
Compound: FC(F)(F)c1cnc(NC2CCC3CNCC32)nc1-c1c[nH]c2nc(N3CCOCC3)ccc12 (stereo not drawn) [Compound 55]
IC50: 20 to 200 nM
--
Compound: FC(F)(F)c1cnc(NC2CCC3CNCC32)nc1-c1c[nH]c2nc(N3CCOCC3)ccc12 (single isomer, unassigned) [Compound 56]
IC50: 200 to 5000 nM
--
Compound: FC(F)(F)c1cnc(NC2CCC3(CCNCC3)C2)nc1-c1c[nH]c2nc(N3CCOCC3)ccc12 (stereo not drawn)
IC50: 20 to 200 nM

Report IC50 for CP(C)(=O)c1cccc2c(-c3nc(NC4CCC5(CCNC5)C4)ncc3C(F)(F)F)c[nH]c12 (single isomer, unassigned) [Compound 98]
< 20 nM

Indicate its recorded IC50; the compound in question is CP(C)(=O)c1cccc2c(-c3nc(NC(CO)CO)ncc3C(F)(F)F)c[nH]c12
< 20 nM

Please report IC50 for the following compound: CP(C)(=O)c1cccc2c(-c3nc(NCC(O)C(F)F)ncc3C(F)(F)F)c[nH]c12 (single isomer, unassigned) [Compound 124]
< 20 nM

Give IC50 for the following compound: C[C@H]1COCCN1c1ccc2c(-c3nc(N[C@@H]4CCC45CNC5)ncc3C(F)(F)F)c[nH]c2n1
< 20 nM
